Sourced from patent US20220073643A1

# CDC EC50 annotations
targetOrSystem: human Claudin18.2 (human)
test: cell-based or functional assay

{"binder": "252C10F6 (antibody, V domains shown) VH: QVHLKQSGRGLVQPSQSLSITCTVSGFSLPNYGVHWVRQPPGKGLEWLGVIWSGGNTDYNTVFKARLSITKDNSKSQVFFKMNSLQADDTAIYYCARNLYGNYDYAMDYWGQGTSVTVSS VL: DIVMTQSPATLSVTPGDRVSLSCRASQSISDYLHWYQQKSHESPRLLIKYASQSISGIPSRFSGSGSGSEFTLSINSVEPEDVGVYYCQNGHSFPFTFGSGTKLEIK", "CDC EC50 / µg/mL": 53.6}
{"binder": "418G6A5 (antibody, V domains shown) VH: DVQLVESGGGLVQPGGSRKLSCVASGFTFSSFGMHWVRQAPEKGLEWVAYISSGSSPMYYADTVKGRFTISRDNPKNTLFLQMTSLRSEDTAMYFCARIYYGNSFAYWGQGTLVTVSA VL: DIVMTQSPSSLTVTAGEKVTMSCKSSQSLLNSGNQKNYLTWYQQKPGQPPKLLIYWASTRESGVPDRFTGSGSGTDFTLTISSVQAEDLAVYYCQNAYSYPLTFGAGTKLELK", "CDC EC50 / µg/mL": 0.83}
{"binder": "232F1E4 (antibody, V domains shown) VH: QVQLKESGPGLVAPSQSLSITCTVSGFALTTYGVSWVRQPPGKGLEWLGVIWGDGSTHYHSALISRLSIRKDNSKSQVFLKLNSLQTDDTATYYCAKPGRGNAMDYWGQGTSVTVSS VL: DIVMSQSPSSLTVTAGEKVTMSCKSSQSLLNSGNQKNYLTWYQQKPGQSPKLLIYWASTRESGVPDRFTGSGSGTDFTLTISSMQAEDLAVYYCQNDYIYPLTFGAGTMLELK", "CDC EC50 / µg/mL": 1.74}
